- Tested on: SK-MEL-28 melanoma
- test-summary: NCI tumour cell line growth inhibition, 48 h
Reported TGI values follow for various compounds
I only need the number, in µM, no unit after it.

INPUT: Give me measured TGI, please, for this compound: `CS(=O)(=O)OCCN(CCOS(C)(=O)=O)c1ccc(C=O)cc1`
OUTPUT: 52.6

INPUT: Give me measured TGI, please, for this compound: `Cc1ccc(Sc2sc(-c3ccccc3)nc2[P+](c2ccccc2)(c2ccccc2)c2ccccc2)cc1`
OUTPUT: 1.88

----------
Reported GI50 values follow for various compounds
- Tested on: UACC-257 melanoma
- test-summary: NCI tumour cell line growth inhibition, 48 h

[[record]]
compound = "CNCCCNCCCN1C(=O)c2ccc3c4c(ccc(c24)C1=O)C(=O)N(CCCNCc1ccccc1OC)C3=O"
experimental_value = "1.35 µM"

[[record]]
compound = "NC1CCC(N[C@@H]2C[C@H]2c2ccccc2)CC1 (stereo not given in full)"
experimental_value = "> 100 µM"

[[record]]
compound = "O=C(COc1cccc(/C=C2\\CSc3ccccc3C2=O)c1)c1ccc(Cl)cc1"
experimental_value = "2.68 µM"

[[record]]
compound = "COc1ccc(-c2csc(NC(=O)c3cc(O)c(O)c(O)c3)n2)cc1"
experimental_value = "11.9 µM"

[[record]]
compound = "NC1=Nc2cc(OCCCN3Cc4ccccc4C3)c(OCC3CC3)cc2C12CCCC2"
experimental_value = "2.2 µM"


INPUT: Give me measured GI50, please, for this compound: `Fc1ccc2[nH]cc(SSc3c[nH]c4ccc(F)cc34)c2c1`
OUTPUT: 8.51 µM

INPUT: Give me measured GI50, please, for this compound: `O=C(Nc1ccccc1)Nc1cccc(Oc2nnc(Cl)c3ccccc23)c1`
OUTPUT: 3.96 µM

INPUT: Give me measured GI50, please, for this compound: COc1ccc2c(c1)C1(C(=O)N2)C(C#N)=C(c2ccccc2)Nc2c1c(-c1ccccc1)nn2-c1ccccc1 (stereo not given)
OUTPUT: 16 µM

INPUT: Give me measured GI50, please, for this compound: `CCSc1nnc(-c2ccc3ccccc3c2O)n1-c1ccc(Cl)cc1`
OUTPUT: > 100 µM

INPUT: Give me measured GI50, please, for this compound: `Cc1cc2cn3c4cccnc4[nH]c(=O)c3c2cc1C`
OUTPUT: 1.67 µM

----------
- Tested on: COLO 205 colon
- test-summary: NCI tumour cell line growth inhibition, 48 h
Reported GI50 values follow for various compounds

// worked examples, GI50 included
[[record]]
structure_string = "N#C/C(=C\\c1ccc(Br)cc1)n1nnc2ccccc21"
quantity_name = "GI50"
experimental_value = "0.591 µM"

[[record]]
structure_string = "COc1cc(OC)c(C(=O)/C=C/c2cccc(OC(C)=O)c2)cc1CC=C(C)C"
quantity_name = "GI50"
experimental_value = "6.96 µM"

[[record]]
structure_string = "COc1ccc(-c2csc(NC(=O)c3cc(O)c(O)c(O)c3)n2)cc1"
quantity_name = "GI50"
experimental_value = "10.8 µM"


INPUT: Give me measured GI50, please, for this compound: `C[C@H](N)C(=O)N1C[C@H](CCCB(O)O)[C@](N)(C(=O)O)C1`
OUTPUT: > 100 µM

----------
- Test system: DU-145 prostate
- test-summary: NCI tumour cell line growth inhibition, 48 h
quantity-name: TGI

// worked examples, TGI included
[[record]]
compound = "OCc1ccc(N(CCN2CCCC2)Cc2ccc(F)cc2)cc1Cl"
experimental_value = "39.7 µM"

[[record]]
compound = "COC1=C(Br)C(=O)C2=C(C1=O)C1C3=C(C(=O)C=CC3=O)C2c2ccccc21 (centres undefined)"
experimental_value = "53.8 µM"

[[record]]
compound = "CN(C)CCCn1c2nc(=O)[nH]c(=O)c-2nc2cc(Cl)c(Cl)cc21"
experimental_value = "30 µM"

[[record]]
compound = "N#C/C(=C\\c1ccc(Br)cc1)n1nnc2ccccc21"
experimental_value = "3.31 µM"

[[record]]
compound = "CCCN(CCSSCCNc1nc(N(C)O)nc(N(C)O)n1)c1nc(N(C)O)nc(N(C)O)n1"
experimental_value = "> 100 µM"


INPUT: Give me measured TGI, please, for this compound: `NC1=Nc2cc(OCCCN3Cc4ccccc4C3)c(OCC3CC3)cc2C12CCCC2`
OUTPUT: 16.2 µM

INPUT: Give me measured TGI, please, for this compound: `C(=C\c1cc(-c2ccc3ccccc3n2)nc2ccc3ccccc3c12)/c1ccc2ccccc2n1`
OUTPUT: > 100 µM

INPUT: Give me measured TGI, please, for this compound: `COc1ccccc1-c1cc(=O)c2ccc(OC)c(OC)c2o1`
OUTPUT: > 100 µM
